Test system: NCI-H522 lung
assay: NCI tumour cell line growth inhibition, 48 h; in the data active = GI50 below about 0.43 µM; inactive = the rest
Outcomes: True for active, False for inactive

COc1ccc(OC)c(Cn2cc3c(c2)-c2oncc2CC3)c1; False
C[C@@H]1O[C@@H](OC[C@H]2O[C@@H](OCCc3ccc(O)c(O)c3)[C@H](O)[C@@H](O)[C@@H]2OC(=O)/C=C/c2ccc(O)c(O)c2)[C@H](O)[C@H](O)[C@H]1O; False
O=C(Oc1cccnc1)c1ccsc1Nc1ccnc(C(F)(F)F)c1; False
CCN1C(=O)N(CC)C2C1NN=c1s/c(=C3\C(=O)N(CCc4ccccc4)c4ccccc43)c(=O)n12 (centres undefined); True
C=C1CCC2[C@@H](CCC3[C@]2(C)CCC[C@]3(C)C(=O)OC)[C@@H]1CC=O (some centres undefined); False
N#Cc1ccc(N=Cc2c([O-])ccc3ccccc23)cc1.[C-]#[O+].[C-]#[O+].[Ir]; False
CN1CCN(Cc2ccc(NC(=O)c3[nH]ncc3Nc3ncnc4sc5c(c34)CCCC5)cc2)CC1; True
O=C1NC(=O)C(c2cccc(Cl)c2)=C1Nc1ccc(O)c(Cl)c1; False
CN(CCCCCl)P(=O)(OCCS(=O)(=O)CC(NC(=O)CCC(N)C(=O)O)C(=O)NC(C(=O)O)c1ccccc1)OCC1OC(n2cc(F)c(=O)[nH]c2=O)CC1O (centres undefined); True
CC1=CC(=O)C(O)C2(C)C1CC(O)C13COC4(C)C(OC(=O)C41)C(O)C23 (centres undefined); False
COc1ccc(C(=O)N2c3ccccc3Sc3ccccc32)c(OC)c1; True
CC1OC(O[C@H]2/C=C/C=C/C=C/C=C/C=C/C=C/C=C/[C@H](C)[C@@H](O)[C@@H](C)[C@H](C)OC(=O)CC(O)CC(O)CCC(O)C(O)CC(O)C[C@]3(O)C[C@H](O)C(C(=O)O)C(C2)O3)C(O)[C@H](N)C1O (some centres undefined); False
COc1ccc2c(c1)OC1=C(C(=O)OC1)C2c1cc(OC)c2c(c1)OCO2 (centres undefined); True
Cn1cc(-c2nonc2-c2cn(C)c3ccccc23)c2ccccc21; True
CN1CCC(n2cnc(-c3ccc(F)cc3)c2-c2ccnc(N)n2)CC1; False
CCCc1ccc(NCc2cc(OC)c(OC)c(OC)c2)cc1; False
COc1ccc(C2[C@@H](Cl)C(=O)N2c2cc(OC)c(OC)c(OC)c2)cc1Cl (some centres undefined); True
Cc1c(C2=C(c3cn(C)c4ccccc34)C(=O)NC2=O)c2ccccc2n1C; False
CN1CCN(CC(O)COc2c(Br)c(Br)c(Br)c3c2OC(C)(C)C3)CC1 (centres undefined); False

###

Recorded log10(TGI) by entry
System: HCC-2998 colon
assay: NCI tumour cell line growth inhibition, 48 h
observable: log10(TGI) (log10 of the value in µM)

COc1ccc(C2[C@@H](Cl)C(=O)N2c2cc(OC)c(OC)c(OC)c2)cc1Cl (stereo not given in full); 1.25
CCN(Cc1ccc(Cl)s1)c1ccc(CO)c(Cl)c1; 1.46
CC(=O)c1c(C(F)(F)F)n([O-])c2ccc(C)cc2[n+]1=O; 0.93
CC1CN1c1c(C(=O)/C=C/c2ccccc2)c(-c2ccccc2)nn(C)c1=O (stereo not given); 1.48
CC(C)(CC(O)C#N)/[N+]([O-])=[N+](\[O-])C(C)(C)CC(O)C#N (stereo not given); 1.53
CCCCn1c(=O)c2c(nc3n2CCCN3CCc2ccc(OCC(=O)NCCN(CC)CC)cc2)n(CCCC)c1=O; 0.99
Cc1cc(O)c(C(C)C)cc1C1(c2cc(C(C)C)c(O)cc2C)OC(=O)c2ccccc21; 0.54
COc1cc(/C=C/[N+](=O)[O-])cc(Br)c1OC; 0.50
COC(=O)c1nc(-c2ccccc2)oc1S(=O)(=O)n1nc(C)cc1N; 1.51
CC1(C)N=C(N)N=C(N)N1c1ccc(CCCCc2ccc(S(=O)(=O)F)cc2)c(Cl)c1; 1.32
C/C=C(\C)c1cc(O)c(C)c2c1Oc1cc(O)c(Cl)c(C)c1C(=O)O2; 1.42
CC(=O)Oc1ccccc1C(=O)/C=C/c1cccc([N+](=O)[O-])c1; 0.70

###

Tested on: BT-549 breast
assay: NCI tumour cell line growth inhibition, 48 h
Reported TGI is given for each of the following molecules.
observable: TGI

Cc1cc(O)c(C(C)C)cc1C1(c2cc(C(C)C)c(O)cc2C)OC(=O)c2ccccc21; 5.53 µM
Cc1ccc2c(=O)cc(-c3ccc(-c4ccccc4)s3)[nH]c2n1; > 100 µM
Cn1cc(-c2nonc2-c2cn(C)c3ccccc23)c2ccccc21; > 100 µM
CC(C)[C@@H]1ON1C(C)c1ccccc1 (some centres undefined); > 100 µM
COc1nc(N)c(N=CC(OC(C)=O)C(OC(C)=O)C(COC(C)=O)OC(C)=O)c(=O)n1C (centres undefined); > 100 µM
CC(C)=CCC/C(C)=C/CC/C(C)=C/CC/C=C(\C)CC/C=C(\C)CCC(=O)Nc1ccn(C2OC(CO)C(O)C2(F)F)c(=O)n1 (centres undefined); 0.472 µM
O=c1onc2c3ccccc3ncn12; > 100 µM
O=C1C[C@@H](c2ccccc2)O[C@@H](c2ccccc2)C1; > 100 µM
Cc1cc(NCCCCCCCNc2cc(C)nc3cc([N+](=O)[O-])ccc23)c2ccc([N+](=O)[O-])cc2n1; 67.3 µM
COc1ccc(-c2cc(=O)c3c(OC)c(OC)c(OC)c(OC)c3o2)cc1; > 100 µM
CCCCCn1sc(=O)n(Cc2ccc(CNC(=O)OCc3ccc4cccc(O)c4n3)cc2)c1=O; 3.65 µM
Cc1nc2ccccc2c(/C=C/c2ccc(Br)cc2)c1C(=O)/C=C/c1ccccc1; 4.49 µM
COc1ccc(C(=O)N2c3ccccc3Sc3ccccc32)c(OC)c1; > 100 µM
OC(c1ccc(-c2ccccc2)cc1)C(F)(F)c1nc2ccccc2o1 (centres undefined); > 100 µM

###

Test system: SNB-19 CNS
assay: NCI tumour cell line growth inhibition, 48 h
Measured GI50 accompanies every entry in the list below.
observable: GI50

Nc1ccc(-c2nc3ccccc3[nH]2)c2ccccc12; 3.57 µM
C[CH2][Pb]([CH2]C)([CH2]C)[O]C(=O)c1ccc2ccccc2n1; > 10 µM
CC(C)(C)c1ccc(C(=O)Nc2sc3c(c2C(N)=O)CCC(=O)C3)cc1; 0.457 µM
O=[N+]([O-])c1cc(S(=O)(=O)Oc2ccccc2)ccc1Cl; 3.11 µM
COC(=O)c1nc(-c2ccccc2)oc1S(=O)(=O)n1nc(C)cc1N; 15.6 µM
O=C([CH-]C(=O)c1ccccc1)c1ccccc1.O=C([CH-]C(=O)c1ccccc1)c1ccccc1.[OH-].[OH-].[Ti+4]; 39.9 µM

###

Tested on: OVCAR-3 ovarian
assay: NCI tumour cell line growth inhibition, 48 h
Examples of molecules with documented GI50 follow.
observable: GI50

CC1OC(O[C@H]2/C=C/C=C/C=C/C=C/C=C/C=C/C=C/[C@H](C)[C@@H](O)[C@@H](C)[C@H](C)OC(=O)CC(O)CC(O)CCC(O)C(O)CC(O)C[C@]3(O)C[C@H](O)C(C(=O)O)C(C2)O3)C(O)[C@H](N)C1O (some centres undefined); 2390 nM
COc1cc(/C=C/[N+](=O)[O-])cc(Br)c1OC; 3230 nM
Cc1nc2ccccc2c(/C=C/c2ccc(Br)cc2)c1C(=O)/C=C/c1ccccc1; 1520 nM
C[CH2][Pb]([CH2]C)([CH2]C)[O]C(=O)c1ccc2ccccc2n1; > 10000 nM

###

Test system: U251 CNS
assay: NCI tumour cell line growth inhibition, 48 h
Overview of reported TGI across a group of molecules:
observable: TGI

CN1CCN(CC(O)COc2c(Br)c(Br)c(Br)c3c2OC(C)(C)C3)CC1 (stereo unspecified); 12.9 µM
C=C1CCC2[C@@H](CCC3[C@]2(C)CCC[C@]3(C)C(=O)OC)[C@@H]1CC=O (stereo partly specified); > 100 µM
CCN(CCO)CC(C)Nc1ccc([N+](=O)[O-])c2sc3ccccc3c(=O)c12 (stereo unspecified); 3.35 µM
CCCCn1c(=O)c2c(nc3n2CCCN3CCc2ccc(OCC(=O)NCCN(CC)CC)cc2)n(CCCC)c1=O; 8.1 µM
COc1ccc2c(c1)OC1=C(C(=O)OC1)C2c1cc(OC)c2c(c1)OCO2 (stereo unspecified); > 100 µM
Cc1cc(N(CCC#N)CCC#N)ccc1/C=C1N=C(/C=C\c2ccccc2)N(c2ccc(Cl)cc2)C\1=O; > 100 µM
Nc1ccccc1SCc1csc(-c2ccc(Cl)cc2)n1; 60.1 µM
COc1nc(N)c(N=CC(OC(C)=O)C(OC(C)=O)C(COC(C)=O)OC(C)=O)c(=O)n1C (stereo unspecified); > 100 µM
Cc1ccc(/C=C2\CCCC(CN3CCCCC3)C2=O)cc1 (stereo unspecified); 27.3 µM
COc1ccc(-n2cnc3c(NC(CCSC)C(=O)O)ncnc32)cc1 (stereo unspecified); > 100 µM
CCN1C(=O)N(CC)C2C1NN=c1s/c(=C3\C(=O)N(CCc4ccccc4)c4ccccc43)c(=O)n12 (stereo unspecified); 15.6 µM
COc1ccc(/C=C2\CN(C)C/C(=C\c3ccc(OC)c(OC)c3OC)C2=O)c(OC)c1OC; 0.177 µM
CN(C)c1ccc(N=Nc2ccncc2)cc1; > 100 µM
COC(=O)C(C)(C)N=CN(C)C; > 100 µM
N/N=C1\CC(=O)NC(=O)N1; > 100 µM
COc1cc([C@@H]2c3cc(O)c(OC)cc3C=C(C(N)=O)[C@H]2C(N)=O)ccc1O; > 100 µM
COc1ccc(N=C2C(=Nc3ccc(OC)cc3)N(c3ccccc3)C(=S)N2N=C=C2Sc3ccccc3N2C)cc1; > 100 µM
COc1cccc(N2C(=O)C3c4[nH]c5ccc(C)cc5c4C4CCC(C(C)(C)C)CC4C3C2=O)c1 (stereo unspecified); > 10 µM
Cc1cc(N(CCC#N)CCC#N)ccc1/C=C1/N=C(c2ccccc2)N(N)C1=O; > 100 µM
O=C(NC1CCCC1=O)c1ccccc1 (stereo unspecified); > 100 µM
COc1ccc(OC)c(Cn2cc3c(c2)-c2oncc2CC3)c1; > 100 µM
